# Measured on: Nuclear receptor subfamily 1 group I member 2 (Homo sapiens) (UniProt O75469)
# Sequence (O75469 whole entry, looked up): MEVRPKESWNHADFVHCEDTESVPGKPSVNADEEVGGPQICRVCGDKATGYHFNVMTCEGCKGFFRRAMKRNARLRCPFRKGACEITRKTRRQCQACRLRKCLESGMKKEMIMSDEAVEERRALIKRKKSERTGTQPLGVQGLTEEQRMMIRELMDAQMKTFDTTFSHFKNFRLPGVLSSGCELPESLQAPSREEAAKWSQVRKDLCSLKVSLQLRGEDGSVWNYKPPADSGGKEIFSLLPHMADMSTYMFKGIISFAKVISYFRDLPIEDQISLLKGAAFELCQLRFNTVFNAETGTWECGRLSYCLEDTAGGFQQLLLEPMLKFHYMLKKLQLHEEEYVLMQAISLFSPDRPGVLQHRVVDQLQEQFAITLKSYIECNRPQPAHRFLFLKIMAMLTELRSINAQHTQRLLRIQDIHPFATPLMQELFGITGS
# Run description: ATG_PXR_TRANS: Attagene TRANS-FACTORIAL HepG2 Assay for human Pregnane X Receptor (PXR) (AID 2283008)
Inconclusive results are not listed. The source made the active and inactive calls. Rule for the calls: active = hit-call score of the fitted dose curve at least 0.9, where 1 is the maximum; inconclusive = response in the unintended direction; inactive = score below 0.9.
Thanks in advance; please answer with one of these: 1 = active, 0 = inactive

Reference set (5 entries):
Compound	Assigned label
CCC(C)(O)CCCC(C)C (stereo not drawn)	0
CCc1cccc(C)c1N	0
COc1ccc(-c2coc3cc(O)cc(O)c3c2=O)cc1	1
CC(C)(CO)COC(=O)C(C)(C)CO	0
CCCCNS(=O)(=O)c1ccccc1	0

Lookup: Returns: the outcome recorded for CC1(C)CCC[C@]2(C)[C@H]3CC(=O)O[C@]3(C)CC[C@@H]12 in this assay.
Found: 1

Lookup: Returns: the outcome recorded for CC(C)=NNC(N)=S in this assay.
Found: 0

Lookup: Returns: the outcome recorded for O=C(Cl)c1ccc(C(=O)Cl)cc1 in this assay.
Found: 0

* * *

# Run description: ATG_RORE_CIS: Attagene CIS-FACTORIAL HepG2 Assay for human RAR-related Orphan Receptor Element (RORE) (AID 2282959)
# Applied conditions: HepG2 Attagene cis-factorial RORE reporter, mRNA; actives raise or lower the signal
The source made the active and inactive calls. The calls were made as follows: active = hit-call score of the fitted dose curve at least 0.9, where 1 is the maximum; inactive = score below 0.9.
Thanks in advance; please answer with one of these: 1 (active), -1 (inactive)

Lookup: Returns: the outcome recorded for C=CC(=O)OCCCCCCCCCC in this assay.
Found: -1

Lookup: Returns: the outcome recorded for CC(=O)OCC=C(C)C in this assay.
Found: -1

Lookup: Returns: the outcome recorded for CC(C=O)c1ccccc1 (stereo unspecified) in this assay.
Found: -1

Lookup: Returns: the outcome recorded for CCCCCCCCCCCC(=O)N(C)CC(=O)O in this assay.
Found: 1

Lookup: Returns: the outcome recorded for CCCC(C)C(=O)OCC (stereo unspecified) in this assay.
Found: -1

Lookup: Returns: the outcome recorded for COc1ccc(C(=O)/C(Br)=C\C(=O)O)cc1 in this assay.
Found: 1

* * *

# Run description: ATG_M_19_CIS: Attagene CIS-FACTORIAL HepG2 Assay for M19 Transcription Factor (Internal Marker) (AID 2282939)
# Applied conditions: HepG2 Attagene CIS-FACTORIAL M19 internal marker reporter; actives raise or lower the signal
Calls of active or inactive are those of the source. The calls were made as follows: active = hit-call score of the fitted dose curve at least 0.9, where 1 is the maximum; inactive = score below 0.9.
Thanks in advance; please answer with one of these: active, inactive

Lookup: Returns: the outcome recorded for C=C[Si](OCCOC)(OCCOC)OCCOC in this assay.
Found: inactive

Lookup: Returns: the outcome recorded for CN1CCN(C)CC1 in this assay.
Found: inactive

Lookup: Returns: the outcome recorded for Nc1ccc(Cl)c(N)c1 in this assay.
Found: inactive

Lookup: Returns: the outcome recorded for CCCCCCCCCCCC(=O)N(C)CC(=O)O in this assay.
Found: inactive

Lookup: Returns: the outcome recorded for C=Cc1ccc(OC(C)=O)cc1 in this assay.
Found: inactive

Lookup: Returns: the outcome recorded for O=C(O)/C=C/c1ccccc1 in this assay.
Found: inactive

Lookup: Returns: the outcome recorded for COC(=O)c1ccc(C(=O)OC)c(C(=O)OC)c1 in this assay.
Found: inactive

Lookup: Returns: the outcome recorded for CCCCCCCCCCCCCc1ccccc1 in this assay.
Found: inactive

Lookup: Returns: the outcome recorded for C=CCNCC=C in this assay.
Found: inactive

Lookup: Returns: the outcome recorded for Cn1ccnc1 in this assay.
Found: inactive

Lookup: Returns: the outcome recorded for O=C(OCc1ccccc1)c1ccc(O)cc1 in this assay.
Found: inactive

Lookup: Returns: the outcome recorded for CC1CCC(=O)C1=O (centres undefined) in this assay.
Found: inactive

Lookup: Returns: the outcome recorded for CC(=O)OC(C)c1ccccc1 (centres undefined) in this assay.
Found: inactive

Lookup: Returns: the outcome recorded for CC(C)OC(=O)c1ccccc1 in this assay.
Found: inactive

Lookup: Returns: the outcome recorded for Cc1cccc(C(C)(C)C)c1O in this assay.
Found: inactive

Lookup: Returns: the outcome recorded for c1ccc2sc(SSN3CCOCC3)nc2c1 in this assay.
Found: inactive

Lookup: Returns: the outcome recorded for CCCCC/C=C\C/C=C\CCCCCCCC(=O)O in this assay.
Found: inactive

Lookup: Returns: the outcome recorded for CCCCCCCC(=O)OCC(COC(=O)CCCCCCC)OC(=O)CCCCCCC in this assay.
Found: inactive

Lookup: Returns: the outcome recorded for Cc1cc(C)c(C=O)c(C)c1 in this assay.
Found: inactive

Lookup: Returns: the outcome recorded for CCCCNS(=O)(=O)c1ccc(C)cc1 in this assay.
Found: inactive

Lookup: Returns: the outcome recorded for CC(=O)OCCc1ccccc1 in this assay.
Found: inactive

* * *

# Measured on: Hypoxia-inducible factor 1-alpha (Homo sapiens) (UniProt Q16665)
# Sequence (Q16665 whole entry, looked up): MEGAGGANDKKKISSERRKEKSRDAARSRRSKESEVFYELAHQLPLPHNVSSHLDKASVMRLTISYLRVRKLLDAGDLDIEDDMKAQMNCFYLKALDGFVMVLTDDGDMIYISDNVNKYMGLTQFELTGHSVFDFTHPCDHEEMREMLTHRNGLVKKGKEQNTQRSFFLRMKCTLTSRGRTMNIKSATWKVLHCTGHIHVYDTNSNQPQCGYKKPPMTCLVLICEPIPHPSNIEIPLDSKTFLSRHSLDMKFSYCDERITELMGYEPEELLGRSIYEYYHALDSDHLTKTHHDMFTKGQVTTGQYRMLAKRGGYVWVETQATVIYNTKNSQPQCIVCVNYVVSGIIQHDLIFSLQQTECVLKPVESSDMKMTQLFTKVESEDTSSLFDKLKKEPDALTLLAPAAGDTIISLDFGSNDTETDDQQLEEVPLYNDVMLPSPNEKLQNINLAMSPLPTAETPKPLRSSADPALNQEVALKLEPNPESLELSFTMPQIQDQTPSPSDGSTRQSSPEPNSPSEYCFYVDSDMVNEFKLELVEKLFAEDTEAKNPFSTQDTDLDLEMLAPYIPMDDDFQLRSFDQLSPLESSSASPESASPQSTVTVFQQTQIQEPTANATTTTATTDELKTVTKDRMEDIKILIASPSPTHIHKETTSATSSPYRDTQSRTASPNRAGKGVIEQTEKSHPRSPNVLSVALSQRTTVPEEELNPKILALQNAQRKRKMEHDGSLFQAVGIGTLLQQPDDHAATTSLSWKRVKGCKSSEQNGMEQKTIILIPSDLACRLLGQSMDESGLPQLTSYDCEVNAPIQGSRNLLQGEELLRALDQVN
# Run description: ATG_HIF1a_CIS: Attagene CIS-FACTORIAL HepG2 Assay for human Hypoxia Inducible Factor 1 (HIF1A) (AID 2282951)
# Applied conditions: HepG2 Attagene cis-factorial HIF1a reporter transcription; actives raise or lower the signal
# Experimental: ATG_CIS is a cell-based, multiplexed-readout assay that uses HepG2, a human liver cell line, with measurements taken at 24 hours after chemical dosing in a 24-well plate.ATG_HIF1a_CIS is one of 52 assay component(s) measured or calculated from the ATG_CIS assay. […] This assay endpoint, ATG_HIF1a_CIS, was analyzed with bidirectional fitting relative to DMSO as the negative control and baseline of activity. […]
Activity calls are given as the source filed them. The calls were made as follows: active = hit-call score of the fitted dose curve at least 0.9, where 1 is the maximum; inactive = score below 0.9.
Thanks in advance; please answer with one of these: True for active, False for inactive

Reference set (2 entries):
Compound	Assigned label
Cc1ccccc1CCO	False
CCN1CN(CC)CN(CC)C1	False

Lookup: Returns: the outcome recorded for CCc1cccc(C)c1N in this assay.
Found: False

Lookup: Returns: the outcome recorded for CCCCCCCCCC[N+](C)(CCCCCCCCCC)CCC[Si](OC)(OC)OC in this assay.
Found: False

Lookup: Returns: the outcome recorded for NNS(=O)(=O)c1ccc(Oc2ccc(S(=O)(=O)NN)cc2)cc1 in this assay.
Found: False

Lookup: Returns: the outcome recorded for CC(=O)OCc1ccccc1 in this assay.
Found: False

* * *

# Run description: ATG_GATA_CIS: Attagene CIS-FACTORIAL HepG2 Assay for human GATA Binding Protein (AID 2282944)
# Applied conditions: HepG2 GATA cis-element reporter, Attagene multiplex mRNA; actives raise or lower the signal
The source made the active and inactive calls. The calls were made as follows: active = hit-call score of the fitted dose curve at least 0.9, where 1 is the maximum; inactive = score below 0.9.
Thanks in advance; please answer with one of these: t (active), f (inactive)

Reference set (2 entries):
Compound	Assigned label
CCCCCCCC(=O)OCC(COC(=O)CCCCCCC)OC(=O)CCCCCCC	f
CCC(C)c1ccccc1 (stereo not drawn)	f

Lookup: Returns: the outcome recorded for COC(=O)c1ccc(C(=O)OC)c(C(=O)OC)c1 in this assay.
Found: f

Lookup: Returns: the outcome recorded for CCCCCOC(=O)CCCCC in this assay.
Found: f

Lookup: Returns: the outcome recorded for CCOB(OCC)OCC in this assay.
Found: f

Lookup: Returns: the outcome recorded for Cn1cccc1 in this assay.
Found: f

Lookup: Returns: the outcome recorded for C=C(C)C(=O)OCC(O)COc1ccc(C(C)(C)c2ccc(OCC(O)COC(=O)C(=C)C)cc2)cc1 (stereo not drawn) in this assay.
Found: t

Lookup: Returns: the outcome recorded for CC(=O)OC1CCCCC1C(C)(C)C (stereo not drawn) in this assay.
Found: f

Lookup: Returns: the outcome recorded for CC=C(C)C=CC=C(C)C in this assay.
Found: f

Lookup: Returns: the outcome recorded for CCC[Si](OC)(OC)OC in this assay.
Found: f

Lookup: Returns: the outcome recorded for C[Si]1(C)O[Si](C)(C)O[Si](C)(C)O[Si](C)(C)O[Si](C)(C)O1 in this assay.
Found: f

Lookup: Returns: the outcome recorded for Oc1ccc(/C=C/c2cc(O)cc(O)c2)cc1 in this assay.
Found: f

Lookup: Returns: the outcome recorded for CC(C)c1cc(C(C)C)cc(C(C)C)c1 in this assay.
Found: t

* * *

# Measured on: Glucocorticoid receptor (Homo sapiens) (UniProt P04150)
# Sequence (P04150 whole entry, looked up): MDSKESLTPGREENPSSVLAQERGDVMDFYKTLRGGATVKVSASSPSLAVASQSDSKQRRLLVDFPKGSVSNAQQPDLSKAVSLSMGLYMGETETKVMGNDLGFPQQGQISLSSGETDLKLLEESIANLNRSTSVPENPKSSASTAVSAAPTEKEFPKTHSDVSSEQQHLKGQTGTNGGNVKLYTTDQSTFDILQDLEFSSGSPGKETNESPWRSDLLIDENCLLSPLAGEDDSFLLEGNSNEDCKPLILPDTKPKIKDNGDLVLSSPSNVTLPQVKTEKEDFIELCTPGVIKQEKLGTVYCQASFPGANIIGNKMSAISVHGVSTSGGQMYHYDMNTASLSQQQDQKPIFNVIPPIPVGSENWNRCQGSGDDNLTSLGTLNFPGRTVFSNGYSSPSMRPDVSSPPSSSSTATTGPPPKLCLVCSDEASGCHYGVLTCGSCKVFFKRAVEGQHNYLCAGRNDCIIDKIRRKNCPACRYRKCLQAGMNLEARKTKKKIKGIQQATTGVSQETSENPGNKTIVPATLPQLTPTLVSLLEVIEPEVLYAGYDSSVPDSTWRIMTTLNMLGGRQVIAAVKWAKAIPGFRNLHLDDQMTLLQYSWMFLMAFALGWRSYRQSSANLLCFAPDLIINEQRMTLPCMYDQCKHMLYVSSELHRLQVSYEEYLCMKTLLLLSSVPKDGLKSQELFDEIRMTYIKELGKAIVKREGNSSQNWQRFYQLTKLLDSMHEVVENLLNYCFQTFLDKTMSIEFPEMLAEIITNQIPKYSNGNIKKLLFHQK
# Run description: ATG_GR_TRANS: Attagene TRANS-FACTORIAL HepG2 Assay for human Glucocorticoid Receptor (GR) (AID 2282978);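 note: activators score as hits since higher reporter transcript over DMSO is fitted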
# Applied conditions: HepG2 Attagene TRANS GR reporter, mRNA transcription
Records with an inconclusive call do not appear. Calls of active or inactive are those of the source. Rule for the calls: active = hit-call score of the fitted dose curve at least 0.9, where 1 is the maximum; inconclusive = response in the unintended direction; inactive = score below 0.9.
Readout name: outcome

Look over these answered cases.
Compound	Observed value
CCc1cccc(C)c1N	inactive
CCCCCCCCCCCC(=O)N(C)CC(=O)O	inactive
O=C(C=Cc1ccccc1)OCCc1ccccc1	inactive
O=C(O)c1cc(O)c2ccccc2c1O	inactive
CCCCCCCCC(CO)CCCCCC (stereo unspecified)	inactive
CCCCNC(=S)NCCCC	inactive

Measured outcome (Glucocorticoid receptor (Homo sapiens) (UniProt P04150)), entry O=C(Nc1ccccc1)c1cc(Cl)ccc1O : inactive

Measured outcome (Glucocorticoid receptor (Homo sapiens) (UniProt P04150)), entry C[Si]1(C)O[Si](C)(C)O[Si](C)(C)O[Si](C)(C)O[Si](C)(C)O1 : inactive

Measured outcome (Glucocorticoid receptor (Homo sapiens) (UniProt P04150)), entry CC(=O)C(C)C : inactive

Measured outcome (Glucocorticoid receptor (Homo sapiens) (UniProt P04150)), entry CCC1(C)C(=O)N(Cl)C(=O)N1Cl (stereo unspecified) : inactive

Measured outcome (Glucocorticoid receptor (Homo sapiens) (UniProt P04150)), entry CC(=O)OC1CCCCC1C(C)(C)C (stereo unspecified) : inactive

Measured outcome (Glucocorticoid receptor (Homo sapiens) (UniProt P04150)), entry COc1cc(C)ccc1O : inactive

Measured outcome (Glucocorticoid receptor (Homo sapiens) (UniProt P04150)), entry CC(C)C(=O)OCCOc1ccccc1 : inactive
